FYI, the data here is from ChEMBL document CHEMBL5104099.

Run description: Aqueous solubility of the compound
Assay type: physicochemical
Readout type: solubility (µg/mL)
Express your answer in µg/mL, writing the number without its unit.

Query Cn1c2c(cc(Nc3ccc(C(=O)N4CCOCC4)cn3)c1=O)-c1cccc(-n3ncc4cc(C(C)(C)C)cc(F)c4c3=O)c1C[C@H](O)C2 yields solubility of 1
